Biological target: MNK1 (Homo sapiens (Human))
Sequence (Q9BUB5 whole entry): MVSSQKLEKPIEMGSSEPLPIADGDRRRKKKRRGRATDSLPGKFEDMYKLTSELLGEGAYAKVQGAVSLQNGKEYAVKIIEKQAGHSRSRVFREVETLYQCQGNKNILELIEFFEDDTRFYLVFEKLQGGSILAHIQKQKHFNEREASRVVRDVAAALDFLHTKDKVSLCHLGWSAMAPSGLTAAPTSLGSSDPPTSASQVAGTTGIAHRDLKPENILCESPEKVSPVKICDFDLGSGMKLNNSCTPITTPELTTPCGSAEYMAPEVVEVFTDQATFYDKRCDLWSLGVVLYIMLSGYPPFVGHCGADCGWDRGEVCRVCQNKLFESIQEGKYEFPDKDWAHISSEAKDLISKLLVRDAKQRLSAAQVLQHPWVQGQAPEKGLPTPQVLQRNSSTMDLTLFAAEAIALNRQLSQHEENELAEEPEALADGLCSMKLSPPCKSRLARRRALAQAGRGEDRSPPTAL
Assay: MNK Biochemical Enzymatic Assay (ADP-Glo), MNK1
Conditions: 10 nM recombinant MNK1, 100 μM substrate peptide, 300 μM ATP; read-out: IC50 Mnk1
endpoint_name: IC50

> print(dat)
                                   compound   value.observed
1  CN1Cc2cc(Nc3ncnc4[nH]cnc34)ccc2C1=O [Cpd. No. 2]     10 to 100 nM
2  CC1CNC(=O)c2ccc(Nc3ccncn3)cc21 (stereo not drawn) [Cpd. No. 22]  100 to 10000 nM
3  CC(C)C1NC(=O)c2ccc(Nc3ccncn3)cc21 (stereo not drawn) [Cpd. No. 13]     10 to 100 nM
4  CC1(C)NC(=O)c2c(Cl)cc(Nc3cc(N)ncn3)cc21 [Cpd. No. 43]          < 10 nM
5  Cc1cc(Nc2ccncn2)cc2c1C(=O)NC2C (stereo not drawn) [Cpd. No. 33]     10 to 100 nM
6  O=C1NCc2cc(Nc3cc(Cl)ncn3)ccc21 [Cpd. No. 4]  100 to 10000 nM
7  CC1(C)NC(=O)c2c(Cl)cc(Nc3ccncn3)cc21 [Cpd. No. 36]          < 10 nM
8  O=C1NC(c2ccsc2)c2cc(Nc3ccncn3)ccc21 (stereo not drawn) [Cpd. No. 37]          < 10 nM
9  CC1NC(=O)c2ccc(Nc3ccnc(NC(=O)C4CC4)c3)cc21 (stereo not drawn) [Cpd. No. 24]          < 10 nM

###

Molecular target: UniProtKB Q9BUB5
Assay: MNK Biochemical Enzymatic Assay (ADP-Glo), MNK1
Conditions: 10 nM recombinant MNK1, 100 μM substrate peptide, 300 μM ATP; read-out: IC50 Mnk1
Description: Compounds are screened for MNK inhibition using the ADP-Glo kinase assay kit (Promega, catalogue No. V9101). […] Kinase reactions are carried out in 96-well half-area white flat-bottom polystyrene plates in a final volume of 25 μl. […] The final luminescent signal used for kinase activity readout is produced by the addition of 45 μl of Kinase Detection Reagent (ADP-Glo kit, Promega) and incubating for 40 minutes.
endpoint_name: IC50

> print(dat)
                                   compound   value.observed
1  CC1NC(=O)c2cnc(Nc3ccnc(NC(=O)C4CC4)c3)cc21 (stereo not drawn)          < 10 nM
2                O=C1CCc2cc(Nc3ccncn3)ccc21  100 to 10000 nM
3          CC1(C)NC(=O)c2ccc(Nc3ccncn3)cc21  100 to 10000 nM
4  CC1NC(=O)c2ccc(Nc3ncnc4c3OCCN4)cc21 (stereo not drawn)     10 to 100 nM
5        O=C1NCc2cc(Nc3ncnc4[nH]cnc34)ccc21     10 to 100 nM
6   O=C1NCc2cc(Nc3cc(NC(=O)C4CC4)ncn3)ccc21          < 10 nM
7  CC1NC(=O)c2ccc(Nc3ncnc4c3CCN4)cc21 (stereo not drawn)     10 to 100 nM
8  CC1NC(=O)c2ccc(Nc3cc(NC(=O)C4CC4)ncn3)cc21 (stereo not drawn)          < 10 nM
9                O=C1NCc2cc(Nc3ccncn3)ccc21  100 to 10000 nM

###

Assay: Pharmacokinetics, single intravenous bolus administration
Format: in vivo
Conditions: rat, plasma; male Sprague Dawley rats, single intravenous bolus 1 mg/kg, N = 3/group; formulation 10% NMP/15% EtOH/35% PEG400/40% D5W (Cpd. 57: 10% DMA/15% EtOH/35% PEG400/40% D5W); read-out: Vss
Below is a list of entries, each paired with its recorded Vd value.
endpoint_name: Vd (L/kg)

> print(dat)
                         compound.structure  value.observed
1  Cc1cc(Nc2ncnc(N)c2C)cc2c1C(=O)NC21CCCCC1            6.56
2  COc1c(N)ncnc1Nc1cc(C)c2c(c1)C1(CCCCC1)NC2=O            3.46
3  COc1c(N)ncnc1Nc1cc(C)c2c(n1)C1(CCCCC1)NC2=O            4.59
4  Cc1cc(Nc2ncnc(N)c2Cl)cc2c1C(=O)NC21CCCCC1            13.2
5  Cc1cc(Nc2ncnc(N)c2C)nc2c1C(=O)NC21CCCCC1             3.9

###

Biological target: MNK2 (Homo sapiens (Human))
Sequence (Q9HBH9 whole entry): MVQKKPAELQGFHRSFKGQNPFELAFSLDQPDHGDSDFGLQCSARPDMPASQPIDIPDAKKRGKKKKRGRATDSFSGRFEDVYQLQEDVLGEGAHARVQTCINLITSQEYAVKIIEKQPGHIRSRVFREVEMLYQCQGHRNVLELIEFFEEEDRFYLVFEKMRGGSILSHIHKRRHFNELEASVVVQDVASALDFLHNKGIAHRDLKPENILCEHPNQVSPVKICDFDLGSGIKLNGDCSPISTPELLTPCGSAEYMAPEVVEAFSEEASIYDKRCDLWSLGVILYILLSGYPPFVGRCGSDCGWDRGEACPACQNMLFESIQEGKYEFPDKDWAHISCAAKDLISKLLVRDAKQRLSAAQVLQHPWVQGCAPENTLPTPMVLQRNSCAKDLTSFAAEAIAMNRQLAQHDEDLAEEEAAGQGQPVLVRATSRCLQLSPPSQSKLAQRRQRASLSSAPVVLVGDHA
Experiment: MNK Biochemical Enzymatic Assay (ADP-Glo), MNK2
Conditions: 3 nM recombinant MNK2, 50 μM substrate peptide, 10 μM ATP
Below is a list of entries, each paired with its recorded IC50 value.
endpoint_name: IC50

> print(dat)
                                    compound  endpoint.name   value.observed
 1   CC1(C)NC(=O)c2c(Cl)cc(Nc3cc(N)ncn3)cc21           IC50          < 10 nM
 2      CC1(C)NC(=O)c2c(Cl)cc(Nc3ccncn3)cc21           IC50          < 10 nM
 3  CC1NC(=O)c2ccc(Nc3ccnc(NC(=O)C4CC4)c3)cc21 (stereo not shown)           IC50  100 to 10000 nM
 4  CC1CNC(=O)c2ccc(Nc3ccncn3)cc21 (stereo not shown)           IC50     10 to 100 nM
 5  O=C1NC(c2ccsc2)c2cc(Nc3ccncn3)ccc21 (stereo not shown)           IC50          < 10 nM
 6  CSc1cc(Nc2ccc3c(c2)C(C)NC3=O)ncn1 (stereo not shown)           IC50  100 to 10000 nM
 7   O=C1NC2(CCCCC2)c2cc(Nc3ccncn3)cc(Cl)c21           IC50          < 10 nM
 8  NC1CC(=O)c2ccc(Nc3ccncn3)cc21 (stereo not shown)           IC50  100 to 10000 nM
 9  CC1NC(=O)c2ccc(Nc3cc(NC(=O)C(C)(C)C)ncn3)cc21 (stereo not shown)           IC50  100 to 10000 nM
10          CC1(C)NC(=O)c2ccc(Nc3ccncn3)cc21           IC50     10 to 100 nM

###

Below is a list of entries, each paired with its recorded half-life value.
Assay: Pharmacokinetics, single intravenous bolus administration
Assay type: in vivo
Details: rat, plasma; male Sprague Dawley rats, single intravenous bolus 1 mg/kg, N = 3/group; formulation 10% NMP/15% EtOH/35% PEG400/40% D5W (Cpd. 57: 10% DMA/15% EtOH/35% PEG400/40% D5W); read-out: T½ (converted)
endpoint_name: half-life (h)

> print(dat)
                         compound.structure  value.observed
1  Cc1cc(Nc2ncnc(N)c2C)cc2c1C(=O)NC21CCCCC1            7.34
2  Cc1cc(Nc2ncnc(N)c2C)nc2c1C(=O)NC21CCCCC1            4.15
3  Cc1cc(Nc2ncnc(N)c2Cl)cc2c1C(=O)NC21CCCCC1            9.44
4  COc1c(N)ncnc1Nc1cc(C)c2c(c1)C1(CCCCC1)NC2=O            7.78
5  COc1c(N)ncnc1Nc1cc(C)c2c(n1)C1(CCCCC1)NC2=O            8.48
